Each recorded value in this set is attributed to ChEMBL document CHEMBL1201862.

I'd be grateful if you could share measured GI50 for these entries.
# Tested on: SF-539
# ASSAY_METHOD_TEXT: NCI tumour cell line growth inhibition, 48 h
The source made the active and inactive calls. Cut-off read from the data, not from the text of the source: active = GI50 up to about 1.1 µM and inactive = higher.

// Cc1cc2nc3c(C#N)c(C)c(CCCl)c(Cl)n3c2cc1C : GI50 value = 2.51 µM (inactive)

// COc1cc(CC2c3cc(OC)c(OC)cc3CCN2C)c(Oc2cc3c(cc2OC)-c2c(O)c(OC)cc4c2C(C3)N(C)CC4)cc1OC (stereo not given) : GI50 value = 14.1 µM (inactive)

// CCCCCC/C=C\CCCCCCCCCc1cccc(O)c1C(=O)O [GINKGOLIC ACID 17:1] : GI50 value = > 100 µM (inactive)

// c1ccc(CC2COC(c3cccs3)=N2)cc1 (stereo not given) : GI50 value = > 45 µM (inactive)

// O=C1CCN(CCC(F)(F)C(F)(F)C(F)(F)C(F)(F)C(F)(F)C(F)(F)F)C(=S)N1CCC(F)(F)C(F)(F)C(F)(F)C(F)(F)C(F)(F)C(F)(F)F : GI50 value = > 100 µM (inactive)

// O=[N+]([O-])c1cc(Cl)ccc1Sc1ccccc1 : GI50 value = > 100 µM (inactive)

// Cc1ccc(OCC2OC(n3cnc4c(Cl)nc(Nc5cc(Cl)cc(Cl)c5)nc43)CC2Oc2ccc(C)cc2)cc1 (stereo not given) : GI50 value = > 100 µM (inactive)

// CCOC(=O)CCC(NC(=O)c1ccc(Nc2nc3cc(C(F)(F)F)ccc3nc2C(=O)OCC)cc1)C(=O)OCC (stereo not given) : GI50 value = 12.6 µM (inactive)

// Cc1c2ccncc2c(C)c2c1[nH]c1ccc(OC(C)C)cc12 : GI50 value = 1.82 µM (inactive)

// CC(=O)OCC12C(OC(C)=O)C[C@@H](C)C3(CC(c4ccoc4)OC3=O)C1CCC(O)C21CO1 (stereo not given in full) : GI50 value = > 100 µM (inactive)

// O=C1CSC2(CC(/C=C/c3cccc([N+](=O)[O-])c3)=NN2c2cccc(S(=O)(=O)O)c2)N1c1nc2ccccc2s1 (stereo not given) : GI50 value = 29.6 µM (inactive)

// COc1ccc(/C=C\c2cc(OC)c(OC)c(OC)c2)cc1OCC(=O)O : GI50 value = 3.64 µM (inactive)

// Cc1cc(O)c(C(C)C)cc1CN1CCCCC1 : GI50 value = > 100 µM (inactive)

// CC(=O)n1nc(-c2[nH]c(C)c(-c3nn(C(C)=O)c(=S)o3)c2C)oc1=S : GI50 value = 81.7 µM (inactive)

// O=C(/C=C/c1ccco1)c1cccc(C(=O)/C=C/c2ccco2)n1 : GI50 value = 5.01 µM (inactive)

// CC(=O)C1=C(C)N(c2ccc(C)cc2)C2(O)C=CC(O)=C3C(=O)c4ccccc4C(=O)C312 (stereo not given) : GI50 value = 23.8 µM (inactive)

// CCCc1nn(C)c(CCC(=O)N(Cc2ccccc2)Cc2ccccc2)c1CC : GI50 value = > 100 µM (inactive)

// OC1OC(c2ccc[nH]2)C(F)(F)C(F)(F)C1(F)F (stereo not given) : GI50 value = > 100 µM (inactive)

// N#Cc1ccc(/C=C2\Cc3ccccc3C2=O)cc1 : GI50 value = > 100 µM (inactive)

// CC1=NN(c2cccc(Cl)c2)C(=N/c2nc3ccccc3s2)/C1=C\c1ccccc1O : GI50 value = 42.8 µM (inactive)
